molecular target: Aspartate--tRNA(Asp/Asn) ligase (Mycobacterium tuberculosis (strain ATCC 25618 / H37Rv)); experiment: Assay for Asp RNA synthetase-1 from Mycobacterium tuberculosis; format: functional; parameters: scale not given: direction of the effect not stated beside the values; settings: 30 µM; note: in the data most compounds retested in dose-response had high values
Quantity kind: Percent Effect (%)
Give your result in % as a bare value.

Sample answers from the record:
- Molecule: "CC(Cn1cccn1)NC(=O)NCc1ccccn1 (stereo not drawn)"
  Test system: "Aspartate--tRNA(Asp/Asn) ligase (Mycobacterium tuberculosis (strain ATCC 25618 / H37Rv))"
  Quantity kind: "Percent Effect"
  Measured result: -4.37
- Molecule: "CN(C)S(=O)(=O)c1ccc(CN2CCCC2c2ccccc2)o1 (stereo not drawn)"
  Test system: "Aspartate--tRNA(Asp/Asn) ligase (Mycobacterium tuberculosis (strain ATCC 25618 / H37Rv))"
  Quantity kind: "Percent Effect"
  Measured result: 4.24
- Molecule: "CCN(C(=O)c1ccc(-n2ncc(C#N)c2N)cc1)C1CCCC1"
  Test system: "Aspartate--tRNA(Asp/Asn) ligase (Mycobacterium tuberculosis (strain ATCC 25618 / H37Rv))"
  Quantity kind: "Percent Effect"
  Measured result: 6.53
- Molecule: "Cc1ccc(CNC(=O)Nc2cc(C(F)(F)F)c[nH]c2=O)cn1"
  Test system: "Aspartate--tRNA(Asp/Asn) ligase (Mycobacterium tuberculosis (strain ATCC 25618 / H37Rv))"
  Quantity kind: "Percent Effect"
  Measured result: -6.46
- Molecule: "Cc1cc(CN2CCN(C(=O)NCc3nc(C)cs3)CC2)on1"
  Test system: "Aspartate--tRNA(Asp/Asn) ligase (Mycobacterium tuberculosis (strain ATCC 25618 / H37Rv))"
  Quantity kind: "Percent Effect"
  Measured result: 2.33

### Prompt # query: Percent Effect of entry Cc1nc(C2(NCC(=O)NCCc3cccs3)CCCC2)no1
### Response -3.06

### Prompt # query: Percent Effect of entry Cc1noc(NC(=O)c2ccc(Br)cc2)n1
### Response -2.92

### Prompt # query: Percent Effect of entry O=C1CCSCC(C(=O)N2CCN(C3CCCCC3)CC2)N1 (stereo not drawn)
### Response -4.14

### Prompt # query: Percent Effect of entry CCn1cc2c(n1)C(COC)CN(Cc1ccccn1)C2 (stereo not drawn)
### Response 7.76

### Prompt # query: Percent Effect of entry CN(Cc1ccc(F)cc1)C(=O)CN1CCCC(Cn2cncn2)C1 (stereo not drawn)
### Response -5.51

### Prompt # query: Percent Effect of entry Cc1ncc(CNC(=O)Nc2cc(C(F)(F)F)c[nH]c2=O)s1
### Response 2.67

### Prompt # query: Percent Effect of entry CCCNC(=O)Cn1nc(C(C)C)c2cnn(C(C)(C)C)c2c1=O
### Response -6.33

### Prompt # query: Percent Effect of entry Cc1ccc(-c2ncc(C(=O)NCCNc3ncccn3)s2)c(C)c1
### Response 7.92

###

biological target: Shiga toxin 2 (Escherichia coli O157:H7) (UniProt P09385+P09386); assay: E. coli 0.157:H7 Shiga Toxin SOP - stx2 screening assay; type: functional; parameters: scale not given: direction of the effect not stated beside the values; conditions: 30 µM
Quantity kind: Percent Effect (%)
Give your result in % as a bare value.

Sample answers from the record:
- Compound: "CC(=O)N1CCCN(C(=O)NCCc2cc(Cl)cc(Cl)c2)CC1"
  Test system: "Shiga toxin 2 (Escherichia coli O157:H7) (UniProt P09385+P09386)"
  Unit of measurement: "%"
  Percent Effect: -10
- Compound: "CCC1=N[C@@]2(CC[C@@H]3CN(Cc4ccc(Cl)cc4)C[C@@H]32)C(=O)N1"
  Test system: "Shiga toxin 2 (Escherichia coli O157:H7) (UniProt P09385+P09386)"
  Unit of measurement: "%"
  Percent Effect: 3.7
- Compound: "CN(Cc1ccccc1F)C(=O)CS(=O)(=O)Cc1ccc(Cl)c(Cl)c1"
  Test system: "Shiga toxin 2 (Escherichia coli O157:H7) (UniProt P09385+P09386)"
  Unit of measurement: "%"
  Percent Effect: 37
- Compound: "COCc1nc(N(C)C)ncc1C(=O)Nc1ccn(C)n1"
  Test system: "Shiga toxin 2 (Escherichia coli O157:H7) (UniProt P09385+P09386)"
  Unit of measurement: "%"
  Percent Effect: -19.2

### Prompt # query: Percent Effect of entry CC(C)CCN1CCN(Cc2nc(C3CC3)no2)CC1
### Response -32
